Data credit: BindingDB's records for PubMed 34838650

Biological target: Proteasome subunit beta type-9 (PSMB9)
Assay: Inhibition of 20S immuno proteosome beta1i subunit (unknown origin) assessed as substrate hydrolysis using Z-Leu-Leu-Glu-AMC as fluorogenic substrate at 100 uM
metric-name: Ki (µM)

Example entries begin here.
COc1cc2ccn(C/C=C/C(=O)Nc3ccccc3)c(=O)c2cc1OC    10
COc1cc2ccn(C/C=C/C(=O)NCCc3ccccc3)c(=O)c2cc1OC    14

[P] COc1cc2ccn(C/C=C/C(=O)NCCC(C)C)c(=O)c2cc1OC
[Q] COc1cc2ccn(C/C=C/C(=O)NCc3ccccc3)c(=O)c2cc1OC
[R] COc1cc2ccn(C/C=C/C(=O)NCCCc3ccccc3)c(=O)c2cc1OC
Request: Please list these in order of increasing Ki. Thank you! State the ranking by listing the labels in the requested order.
Response: P, Q, R
(P: 0.27 µM, Q: 3 µM, R: 50 µM)
